I'd be grateful if you could share measured cytotoxicity at 70.5 h for these entries.
assay: Human HepG2 cell viability assay in 384 well format; format: toxicity, cell-based; parameters: dose 125 nL, time 70.5 hour; concentration not given beside the values; conditions: HepG2 cells, read-out: Inhibition
One number for each entry, in %.

Use these answered entries as a reference point.
compound=Cc1ccccc1C(=O)NCc1ccc(N2CCNC(=O)C2)c(F)c1 measure_name="cytotoxicity at 70.5 h" result_value=-8
compound=Cc1cc(NC(=O)NC(C)(C)c2nc(C)c(C)s2)no1 measure_name="cytotoxicity at 70.5 h" result_value=-8.02
compound=OC[C@H]1CN(Cc2c(Cl)cncc2Cl)C[C@H]1CN1CCOCC1 measure_name="cytotoxicity at 70.5 h" result_value=-10.9

State recorded cytotoxicity at 70.5 h for all listed compounds.
1. COCCNC(=O)[C@H]1CN(c2nnc(C)s2)C[C@H]2OCC[C@@H]12
2. Cc1c(S(=O)(=O)N(CCc2ccccc2)Cc2ccn(C)n2)cnn1C
3. CC(C)(CNC1CCCN(Cc2ccccc2F)C1)CN1CCOCC1 (stereo not drawn)
4. CCS(=O)(=O)N(C)C1CCN(C(=O)c2ccc(C)c(C)c2)CC1
5. CS(=O)(=O)c1snnc1C1CCN(Cc2cccc(O)c2)CC1

-17.6
-8.56
-15.7
-8.23
-7.7

I'm hoping you can list cytotoxicity at 70.5 h for every compound here, please.
1. CN1CCN(C2COC3(CCN(Cc4ccc(F)cc4)CC3)C2)CC1 (stereo not drawn)
2. COc1cccc(CC(C)NCC(=O)Nc2ccccc2C)c1 (stereo not drawn)
3. COc1ccc(OCc2nc(C(=O)NCCN3CCOCC3)co2)cc1
4. CC1CN(C)CCN1C(=O)Nc1nc(-c2ccco2)cs1 (stereo not drawn)
5. CC(=O)N(Cc1ncc(C(C)C)o1)C1CCN(Cc2ccno2)C1 (stereo not drawn)

[-11.8, -0.681, -5.59, -13.7, 1.29]

Please report cytotoxicity at 70.5 h for every entry that follows.
1. Cc1cc(NC(=O)Cn2cnc(-c3cccs3)cc2=O)no1
2. CCN1C(=O)CCCC12CCCN(C(=O)c1ccsc1)C2 (stereo not drawn)
3. COc1ccc(Cl)cc1CN(CC(N)=O)C(C)C
4. N#Cc1ccnc(N2CCN(CC(O)c3ccc(F)cc3)CC2)c1 (stereo not drawn)
5. Cc1ccccc1CN1C[C@@H](C(=O)N2CCCCO2)C[C@H]2OCC[C@H]21
6. O=C([C@@H]1CC[C@@H]2[C@@H](CCN2Cc2cccs2)O1)N1CCCCO1
7. Cc1nn(C)c2nc(N(CCN(C)C)CC3CCCO3)sc12 (stereo not drawn)
8. COCCC1(C(=O)O)CCCN(CC(=O)NCCc2ccccc2)C1 (stereo not drawn)

1. -2.01
2. 1.97
3. -4.98
4. -0.587
5. -7.46
6. -7.83
7. -7.79
8. 27.1

For every item in the list below, what is its measured cytotoxicity at 70.5 h?
1. Cc1cc(-c2cnc(N3CCNC(=O)C3)nc2-c2ccc(C)o2)on1
2. O=C1CCC(C(=O)NCc2nncn2-c2ccccc2)CN1 (stereo not drawn)
3. O=c1[nH]c2ccc(S(=O)(=O)N(CCO)Cc3ccncc3)cc2[nH]1
4. Cc1cccn2c(CNC(C)CCn3cccn3)cnc12 (stereo not drawn)
5. O=C(CCOc1ccccc1F)N1CCCC1Cn1cccn1 (stereo not drawn)

1: -16.3; 2: -12.6; 3: -4.4; 4: 3.49; 5: 0.51

Lab note: each compound below needs its cytotoxicity at 70.5 h filled in.
1. CCN(Cc1nc(Cc2ccccc2)no1)C1CC1
2. Cc1nn(C)c(Cl)c1C1CCCN1Cc1noc(C2CC2)n1 (stereo not drawn)
3. CN1CC[C@@H]2[C@@H]1CCN2Cc1ccc2c(c1)OCO2
4. Cc1cnc(N)c(C(=O)C2CCN(C(=O)C3CCC3)CC2)c1
5. COc1cccc(C2=CCN(CCN3CCCC3=O)CC2)c1
6. COCCNC(=O)[C@@]12CCO[C@@H]1CCN(Cc1ccc(OC)cc1)C2
7. O=C(C1CCOC1)N1CCC2(CCN(Cc3nccs3)C2)CC1 (stereo not drawn)

1: -4.11; 2: -9.55; 3: -9.96; 4: 11.3; 5: -7.88; 6: -5.1; 7: -10.1

Value sought for every listed compound: cytotoxicity at 70.5 h.
1. CCOCC(O)CN1CCN(C(=O)CC(C)(C)C)CC1 (stereo not drawn)
2. COCCN1CC2(CCOCC2)c2cc(NC(=O)C3CC=CC3)ccc21
3. Cn1cc(C(=O)NC(Cn2cccn2)C(C)(C)C)cn1 (stereo not drawn)
4. CN(CC(=O)NC(C)(C)C)C(=O)C1CC(c2cccc(F)c2)=NO1 (stereo not drawn)
5. CN(C)C(=O)N1CCc2c(nnn2C)C1COCC1CC1 (stereo not drawn)

1. -18.5
2. 28.4
3. 2.11
4. 4.91
5. -2.28

Quick request: cytotoxicity at 70.5 h for each listed item, please.
1. c1cn(Cc2ccc(N3CCCN(C4CCCC4)CC3)nc2)cn1
2. Cn1ccnc1CN(CCO)C(=O)c1nc2ccccc2s1
3. CCn1ccnc1CN1CCN(CCOc2cccc(C#N)c2)CC1
4. COc1ccc2nnc(CCCC(=O)NCCC3=CCCCC3)n2n1
5. CNC(=O)C1CCN(C(=O)NCc2ccc(-c3ccn[nH]3)cc2)CC1

38.7
2.62
-5.28
-4.24
-3.31

====

assay: Human HepG2 cell viability assay in 384 well format; type: toxicity, cell-based; parameters: dose 125 nL, time 70.5 hour; concentration not given beside the values; conditions: HepG2 cells, read-out: Inhibition
Give cytotoxicity at 70.5 h for every item shown.
Numbers only, in %.

compound=CN1CCN(C2CCN(Cc3nc(-c4ccoc4)no3)CC2)C1=O result_value=-6.16
compound=Cc1noc(NC(=O)c2ccc(C)c(F)c2)n1 result_value=41
compound="Fc1cccc(-c2nnn3c2COC(CNc2ncccn2)C3)c1 (stereo not given)" result_value=26.8
compound=NS(=O)(=O)CCNC(=O)c1cc2ccccc2nc1N1CCCC1 result_value=-5.72
compound=NCc1cccc(-c2cccnc2C(=O)NCCN2CCCC2)c1 result_value=-8.26
compound=Cc1ccc(OCC(=O)NCC(C)C)nc1 result_value=-3.31

For each listed entry, give its cytotoxicity at 70.5 h.
1. O=C(c1cc(-n2cccn2)ccc1Cl)N1CCCC(N2CCCC2)C1 (stereo not given)
2. CC(C)CNC(=O)N1CCC2(CCCO2)C1 (stereo not given)
3. CC(C)C(=O)NC(Cc1cc(N(C)C)nc(C2CC2)n1)c1ccccc1 (stereo not given)
4. CCn1cc(S(=O)(=O)NC2CCCN(CCCc3ccccc3)C2)cn1 (stereo not given)
5. O=C(c1ncoc1C1CCCO1)N1CCCC2(CCCCC2)C1 (stereo not given)

-5.55
-1.61
3.43
-1
-2.37

// batch mode: one cytotoxicity at 70.5 h value per listed entry
1. c1csc(N2CCCN(Cc3nc(C4CC4)no3)CC2)n1
2. Cc1nnc(CN(C)C(=O)C(CC(C)C)N2CCCCC2=O)n1C (stereo not given)
3. CCOCC(=O)N1Cc2nnn(C)c2C(COCc2ccccn2)C1 (stereo not given)
4. O=C(NS(=O)(=O)c1cnn(-c2ccccc2F)c1)c1ccoc1
5. CN(C)C(=O)Cc1ccccc1NCc1cccc(F)c1F

1: -15.8; 2: -5.01; 3: 9.65; 4: 9.38; 5: 0.378

====

assay: Human HepG2 cell viability assay in 384 well format; type: toxicity, cell-based; set-up: dose 125 nL, time 70.5 hour; concentration not given beside the values; conditions: HepG2 cells, read-out: Inhibition
Please respond with reported cytotoxicity at 70.5 h for every item in the list.
Write the figure, then the unit, nothing else.

compound=CCS(=O)(=O)N1CCCn2nnc(Cn3cccc3)c2C1 result_value=-5.99%

Count: 4. Required value per item: cytotoxicity at 70.5 h.
1. CC(C)CC(=O)NC[C@H]1CC[C@H](C(c2ccccn2)N(C)C)CC1 (stereo partly specified)
2. Cc1ccc2nc(CNCCCN3CCCC3=O)cc(O)c2c1
3. Cc1cc(NC(=O)N2CCCC2CN2CCOCC2)nn1C (stereo unspecified)
4. CNc1ncc(C(=O)N2CCOC(C(=O)Nc3ccccc3)C2)cn1 (stereo unspecified)

1: -3.76%; 2: 14.6%; 3: -10.1%; 4: -2.73%

Batch request: cytotoxicity at 70.5 h for each of the following compounds.
1. CN(C)[C@@H]1CO[C@H](CNC(=O)c2cccs2)[C@H]1O
2. Cc1ccc(NC(=O)c2cc3c(=O)n(C)c(=O)n(C)c3nc2C)cc1Cl
3. COC[C@@H]1CC[C@H]2[C@H](CCN2S(=O)(=O)c2cccc(F)c2)O1
4. CN1CCOC(CNC(=O)CCCOc2cccc(F)c2)C1 (stereo unspecified)

["-8.01%", "1.87%", "-5.66%", "0.774%"]

Could you tell me cytotoxicity at 70.5 h for each of these compounds? They are listed below.
1. CS(=O)(=O)N1CCCC(c2cccc(-c3ccccc3F)n2)C1 (stereo unspecified)
2. CCS(=O)(=O)NCC(Cc1cccc(F)c1)N1CCNC1=O (stereo unspecified)
3. CNc1cc(C2CCCN2C(=O)CCc2cnn(C)c2C)ccn1 (stereo unspecified)
4. Cn1cnnc1C1CCCN(C(=O)NCCc2ccccn2)C1 (stereo unspecified)
5. COc1cccc(CN2C[C@@H]3COC[C@]3(COCc3ccccn3)C2)c1
6. CN(C)c1cc(CNC(=O)c2ccc(=O)[nH]n2)ccn1

["-7.63%", "6.34%", "-8.49%", "-4.27%", "2.25%", "1.83%"]

Fill in the blank: the reported cytotoxicity at 70.5 h of "O=C(CCN1CCCC1)Nc1c2c(cc3c1CCC3)CCC2" is ____. -0.353%
